# Test system: KM12 colon
# assay_name: NCI tumour cell line growth inhibition, 48 h; in the data active = GI50 below about 0.43 µM; inactive = the rest
Classes used: active, inactive

COc1ccc(/C=N/C2=C(C#N)C(c3ccccc3)c3ccc4ccccc4c3O2)cc1 (stereo not given) ... active
COc1ccc2c(C(=O)NCCCCCC(=O)O)cc3cc4c(cc3c2c1)OCO4 ... inactive
OC(c1cc2c(Cl)cc(Cl)cc2c2cc(C(F)(F)F)ccc12)C1CCCCN1 (stereo not given) ... inactive
Nc1ncnc2c1c(-c1ccc(Oc3ccccc3)cc1)nn2C[C@H]1SSC[C@H]1O ... active
CN(Cc1cccc(Cl)c1)c1ccc(CO)c(Cl)c1 ... inactive

----------
# Tested on: HCT-116 colon
# assay_name: NCI tumour cell line growth inhibition, 48 h
The entries below are paired with their reported TGI.
assay_endpoint: TGI (µM)

CCN(CC)CCCNc1c2cc(OC)ccc2nc2cccc([N+](=O)[O-])c12 ... 0.175
Cc1cc(=O)[nH]c2c1C(=O)C(=O)C=C2 ... 35.4
CN(Cc1cccc(Cl)c1)c1ccc(CO)c(Cl)c1 ... 11.3
O=CN/C=C\c1cc(O)ccc1O ... 25.2
